The reported measurements were obtained from patent US20260297060A1.

experiment: Pharmacokinetics after 21 days dosing in the efficacy study (plasma, tumor and brain concentrations; plasma AUC at steady state), Example 14; format: in vivo, female BALB/c nude mice; conditions: mouse, plasma, po; 5 mg/kg p.o. BID x 21 days; 2 h; mean ± SEM
metric name: concentration at 2 h (ng/mL)
Expressed in ng/mL, but write only the number.

Query string: # return recorded concentration at 2 h for entry CCN(C)S(=O)(=O)Nc1ccc(F)c(Oc2ccc3ncn(C4CC5(CCN(C6CC7(C6)CN(c6cc8c(cc6F)c(N6CCC(=O)NC6=O)nn8C)C7)CC5)C4)c(=O)c3c2)c1C#N (stereo not shown)
Result string: 6130

====

test: Pharmacokinetics in female BALB/c nude mice bearing A375 xenografts, 1 day dosing (PK and PD study): plasma, tumor and brain concentrations, AUC; type: in vivo; settings: mouse, plasma, po; 2 mg/kg p.o. TID × 1 day; read-out: Plasma AUC at 24 hours, Average
metric name: AUC at 24 h (µg·h/mL)
Expressed in µg·h/mL, but write only the number.

Query string: # return recorded AUC at 24 h for entry CCN(C)S(=O)(=O)Nc1ccc(F)c(Oc2ccc3ncn([C@H]4COC5(CCN(C6CC7(C6)CN(c6cc8c(cc6F)c(N6CCC(=O)NC6=O)nn8C)C7)CC5)C4)c(=O)c3c2)c1C#N
Result string: 41.8

====

Entries and their Emax
biological target: BRAF V600E (Homo sapiens, UniProt P15056+Q96SW2, V600E); construct: knock-in of the HiBiT tag to the endogenous BRAF V600E locus; host or cells: A375.10 (A375 clonal line, CRISPR HiBiT knock-in at the endogenous BRAF V600E locus); assay: BRAF V600E HiBiT Degradation Assay; type: cell-based; settings: read-out: HiBiT-Degradation A375.10 BRAF 2 hours Emax, A375.10 cells, BRAF V600E, 2 hours; residual protein remaining
Sequence (P15056 whole entry V600E): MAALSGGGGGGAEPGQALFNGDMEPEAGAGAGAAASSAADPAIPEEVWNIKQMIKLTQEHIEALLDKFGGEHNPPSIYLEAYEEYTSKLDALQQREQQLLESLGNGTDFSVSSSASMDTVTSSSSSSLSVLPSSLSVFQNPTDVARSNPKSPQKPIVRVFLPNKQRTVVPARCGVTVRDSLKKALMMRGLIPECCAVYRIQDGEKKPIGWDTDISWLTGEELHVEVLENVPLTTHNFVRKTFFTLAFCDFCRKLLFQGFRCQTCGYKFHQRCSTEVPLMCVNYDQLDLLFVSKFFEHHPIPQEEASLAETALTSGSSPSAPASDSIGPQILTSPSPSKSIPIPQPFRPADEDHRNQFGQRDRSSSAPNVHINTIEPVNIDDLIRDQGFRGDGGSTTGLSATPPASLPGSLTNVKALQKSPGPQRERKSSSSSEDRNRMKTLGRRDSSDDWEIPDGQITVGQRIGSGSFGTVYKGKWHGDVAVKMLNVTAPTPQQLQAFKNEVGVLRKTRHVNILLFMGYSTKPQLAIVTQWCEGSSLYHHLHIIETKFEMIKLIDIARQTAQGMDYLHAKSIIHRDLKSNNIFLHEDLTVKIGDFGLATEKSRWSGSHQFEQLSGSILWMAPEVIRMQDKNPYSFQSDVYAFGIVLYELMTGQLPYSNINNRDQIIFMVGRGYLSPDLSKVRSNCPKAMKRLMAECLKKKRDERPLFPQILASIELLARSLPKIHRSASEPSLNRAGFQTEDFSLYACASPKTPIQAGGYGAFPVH
Sequence (Q96SW2 whole entry): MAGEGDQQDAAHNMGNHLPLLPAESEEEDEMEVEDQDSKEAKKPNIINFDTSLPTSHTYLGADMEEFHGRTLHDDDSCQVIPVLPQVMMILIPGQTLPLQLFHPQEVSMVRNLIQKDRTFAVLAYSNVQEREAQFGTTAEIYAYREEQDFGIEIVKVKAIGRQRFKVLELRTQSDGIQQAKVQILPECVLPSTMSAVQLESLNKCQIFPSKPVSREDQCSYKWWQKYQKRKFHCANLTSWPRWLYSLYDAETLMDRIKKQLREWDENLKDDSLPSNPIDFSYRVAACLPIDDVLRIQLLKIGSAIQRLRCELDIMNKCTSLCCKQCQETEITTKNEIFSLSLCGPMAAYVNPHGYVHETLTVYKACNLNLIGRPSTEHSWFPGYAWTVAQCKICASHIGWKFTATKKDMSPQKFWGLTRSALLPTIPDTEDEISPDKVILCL
Sequence (Q16531 whole entry partner): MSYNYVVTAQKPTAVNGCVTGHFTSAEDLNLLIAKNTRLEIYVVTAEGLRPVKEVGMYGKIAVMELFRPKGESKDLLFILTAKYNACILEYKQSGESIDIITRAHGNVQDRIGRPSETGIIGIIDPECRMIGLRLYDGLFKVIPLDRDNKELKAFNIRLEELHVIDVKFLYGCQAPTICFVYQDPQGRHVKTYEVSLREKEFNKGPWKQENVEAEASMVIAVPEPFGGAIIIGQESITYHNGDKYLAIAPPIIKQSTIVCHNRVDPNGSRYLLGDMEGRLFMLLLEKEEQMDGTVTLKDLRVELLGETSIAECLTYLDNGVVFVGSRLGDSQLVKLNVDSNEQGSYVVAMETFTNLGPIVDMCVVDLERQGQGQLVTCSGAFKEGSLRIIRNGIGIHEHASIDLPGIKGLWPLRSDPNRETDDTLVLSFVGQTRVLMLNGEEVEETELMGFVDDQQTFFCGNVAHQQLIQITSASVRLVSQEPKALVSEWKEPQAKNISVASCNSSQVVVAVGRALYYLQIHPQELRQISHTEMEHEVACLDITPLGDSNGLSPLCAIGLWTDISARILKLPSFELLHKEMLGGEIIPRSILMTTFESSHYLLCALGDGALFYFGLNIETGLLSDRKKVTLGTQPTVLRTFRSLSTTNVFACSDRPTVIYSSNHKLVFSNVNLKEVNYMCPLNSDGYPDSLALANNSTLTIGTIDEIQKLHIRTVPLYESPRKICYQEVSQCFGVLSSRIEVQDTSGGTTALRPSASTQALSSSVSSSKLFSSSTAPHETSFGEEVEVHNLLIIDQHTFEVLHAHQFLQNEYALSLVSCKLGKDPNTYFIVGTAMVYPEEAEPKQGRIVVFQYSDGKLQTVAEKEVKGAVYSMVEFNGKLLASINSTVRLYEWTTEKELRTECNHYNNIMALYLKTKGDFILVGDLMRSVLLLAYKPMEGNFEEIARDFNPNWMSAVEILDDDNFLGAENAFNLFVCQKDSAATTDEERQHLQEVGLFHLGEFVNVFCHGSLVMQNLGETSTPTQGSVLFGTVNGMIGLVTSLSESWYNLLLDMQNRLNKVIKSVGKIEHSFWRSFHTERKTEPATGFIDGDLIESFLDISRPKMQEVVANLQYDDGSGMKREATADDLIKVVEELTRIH

compound=CCN(C)S(=O)(=O)Nc1ccc(F)c(Oc2ccc3ncc([C@@H]4COC5(CCN(C6CC7(C6)CN(c6cc8c(cc6F)c(N6CCC(=O)NC6=O)nn8C)C7)CC5)C4)nc3c2)c1C#N study_system="BRAF V600E (Homo sapiens, UniProt P15056+Q96SW2, V600E)" metric_name=Emax result="50 to 90%"
compound="CCN(C)S(=O)(=O)Nc1ccc(F)c(Oc2ccc3ncn([C@@H]4CCC5(CCN(C6CCC(c7cc8c(cc7F)c(N7CCC(=O)NC7=O)nn8C)CC6)CC5)C4)c(=O)c3c2)c1C#N (single isomer, unassigned)" study_system="BRAF V600E (Homo sapiens, UniProt P15056+Q96SW2, V600E)" metric_name=Emax result="50 to 90%"
compound="CCN(C)S(=O)(=O)Nc1ccc(F)c(Oc2ccc3ncn([C@H]4COC5(CCN(C6CCC(c7cc8c(cc7F)c(N7CCC(=O)NC7=O)nn8C)CC6)CC5)C4)c(=O)c3c2F)c1C#N (single isomer, unassigned)" study_system="BRAF V600E (Homo sapiens, UniProt P15056+Q96SW2, V600E)" metric_name=Emax result="< 50%"
compound="CCN(C)S(=O)(=O)Nc1ccc(F)c(Oc2ccc3ncn([C@H]4COC5(CCC(N6CC[C@@H](c7ccc(NC8CCC(=O)NC8=O)cc7F)C(F)(F)C6)CC5)C4)c(=O)c3c2)c1C#N (stereo partly shown)" study_system="BRAF V600E (Homo sapiens, UniProt P15056+Q96SW2, V600E)" metric_name=Emax result="50 to 90%"
compound="CCN(C)S(=O)(=O)Nc1ccc(F)c(Oc2ccc3ncn([C@H]4COC5(CCN(C6CCC(c7cc8c(cc7F)c(N7CCC(=O)NC7=O)nn8C)CC6F)CC5)C4)c(=O)c3c2)c1C#N (single isomer, unassigned)" study_system="BRAF V600E (Homo sapiens, UniProt P15056+Q96SW2, V600E)" metric_name=Emax result="< 50%"
compound="CCN(C)S(=O)(=O)Nc1ccc(F)c(Oc2ccc3ncn([C@H]4CCC5(CCN(C6CCC(c7cc8c(cc7F)c(N7CCC(=O)NC7=O)nn8C)CC6)CC5)C4)c(=O)c3c2)c1C#N (single isomer, unassigned)" study_system="BRAF V600E (Homo sapiens, UniProt P15056+Q96SW2, V600E)" metric_name=Emax result="< 50%"

Query string: # return recorded Emax for entry Cn1nc(N2CCC(=O)NC2=O)c2cc(F)c(N3CC4(CC(N5CCC6(CC5)CC(n5cnc7ccc(Oc8c(F)ccc(NS(=O)(=O)C9CCCC9)c8C#N)cc7c5=O)C6)C4)C3)cc21
Result string: < 50%
